Below, each of the molecules is paired with its reported t1/2 (thermal half-life Z to E) value.
Experiment: Thermal half-life of the Z-isomer (UV/vis, 96-well plate)
Format: physicochemical
Details: 25 °C, preirradiation with 340 nm, HEPES buffer pH 7.4
Numbered stars: 1 amine (or outer) side, 2 acyl side, 3 side chain; on linkers, the order of the positions; unused ones are H or OH. Bridge positions count the residues as written; N and C are the ends. Square brackets hold non-standard residues; d marks the D form. Peptide text beside a SMILES is read from it. AMPB(E) = O=C(c1ccc(/N=N/c2ccc(CN[*:1])cc2)cc1)[*:2]; X1 = O=C([C@H](Cc1ccc(/N=N/c2ccccc2)cc1)N[*:1])[*:2]

molecule | t1/2 (thermal half-life Z to E) / h
NC(=O)CC[C@@H]1NC(=O)[C@H](Cc2ccccc2)NC(=O)[C@H](Cc2ccc(O)cc2)NC(=O)[C@@H](N)CSSC[C@@H](C(=O)NCc2ccc(/N=N/c3ccc(C(=O)NCC(N)=O)cc3)cc2)NC(=O)[C@H](CC(N)=O)NC1=O [compound 13, [AzbL^7/8]-VP] (H-CYFQNC[AMPB(E)]G-NH2; disulfide 1-6) | 12
N=C(N)NCCC[C@H](NC(=O)c1ccc(/N=N/c2ccc(CNC(=O)[C@@H]3CSSC[C@H](N)C(=O)N[C@@H](Cc4ccc(O)cc4)C(=O)N[C@@H](Cc4ccccc4)C(=O)N[C@@H](CCC(N)=O)C(=O)N[C@@H](CC(N)=O)C(=O)N3)cc2)cc1)C(=O)NCC(N)=O [compound 14, [AzbL^7]-VP] (H-CYFQNC[AMPB(E)]RG-NH2; disulfide 1-6) | 33.6
CC[C@H](C)[C@@H]1NC(=O)[C@H](Cc2ccc(O)cc2)NC(=O)[C@@H](N)CSSC[C@@H](C(=O)NCc2ccc(/N=N/c3ccc(C(=O)N[C@@H](CC(C)C)C(=O)NCC(N)=O)cc3)cc2)NC(=O)[C@H](CC(N)=O)NC(=O)[C@H](CCC(N)=O)NC1=O [compound 11, [AzbL^7]-OT] (H-CYIQNC[AMPB(E)]LG-NH2; disulfide 1-6) | 28.8
CC[C@H](C)[C@@H]1NC(=O)[C@H](Cc2ccc(O)cc2)NC(=O)[C@@H](N)CSSC[C@@H](C(=O)NCc2ccc(/N=N/c3ccc(C(=O)NCC(N)=O)cc3)cc2)NC(=O)[C@H](CC(N)=O)NC(=O)[C@H](CCC(N)=O)NC1=O [compound 10, [AzbL^7/8]-OT] (H-CYIQNC[AMPB(E)]G-NH2; disulfide 1-6) | 40.8
N=C(N)NCCC[C@H](NC(=O)[C@@H]1CCCN1C(=O)[C@@H]1CSSC[C@H](N)C(=O)N[C@@H](Cc2ccc(O)cc2)C(=O)N[C@@H](Cc2ccc(/N=N/c3ccccc3)cc2)C(=O)N[C@@H](CCC(N)=O)C(=O)N[C@@H](CC(N)=O)C(=O)N1)C(=O)NCC(N)=O [compound 12, [AzbS^3]-VP] | 72
CC[C@H](C)[C@@H]1NC(=O)[C@H](Cc2ccc(O)cc2)NC(=O)[C@@H](N)CSSC[C@@H](C(=O)N[C@@H](Cc2ccc(/N=N/c3ccccc3)cc2)C(=O)N[C@@H](CC(C)C)C(=O)NCC(N)=O)NC(=O)[C@H](CC(N)=O)NC(=O)[C@H](CCC(N)=O)NC1=O [compound 9, [AzbS^7]-OT] (H-CYIQNC[X1]LG-NH2; disulfide 1-6) | 72
CC[C@H](C)[C@@H]1NC(=O)[C@H](Cc2ccc(/N=N/c3ccccc3)cc2)NC(=O)[C@@H](N)CSSC[C@@H](C(=O)N2CCC[C@H]2C(=O)N[C@@H](CC(C)C)C(=O)NCC(N)=O)NC(=O)[C@H](CC(N)=O)NC(=O)[C@H](CCC(N)=O)NC1=O [compound 8, [AzbS^2]-OT] (H-C[X1]IQNCPLG-NH2; disulfide 1-6) | 132

* * *

Known pEC50 of a selection of compounds
Molecular target: hV1bR (Homo sapiens, UniProt P47901)
Construct: expressed in transfected cells
Sequence (P47901 whole entry): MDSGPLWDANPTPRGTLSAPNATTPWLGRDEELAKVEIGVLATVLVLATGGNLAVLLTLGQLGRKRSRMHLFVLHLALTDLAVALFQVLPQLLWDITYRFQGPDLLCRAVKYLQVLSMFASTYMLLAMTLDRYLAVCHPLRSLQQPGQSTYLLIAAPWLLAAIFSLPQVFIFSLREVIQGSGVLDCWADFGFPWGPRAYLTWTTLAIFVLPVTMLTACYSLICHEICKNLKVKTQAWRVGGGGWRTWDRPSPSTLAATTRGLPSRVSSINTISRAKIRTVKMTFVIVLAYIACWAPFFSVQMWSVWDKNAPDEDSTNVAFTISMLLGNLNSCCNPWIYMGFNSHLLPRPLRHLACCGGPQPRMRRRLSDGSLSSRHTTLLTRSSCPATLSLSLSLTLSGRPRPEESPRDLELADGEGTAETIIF
Assay: IP-One accumulation assay, agonist function, HEK293 cells expressing hV1bR
Type: cell-based
Conditions: IP-One, stable HEK293 hV1bR; read-out: V1bR EC50 ± SEM
pEC50: −log10 of the molar value. Numbered stars: 1 amine (or outer) side, 2 acyl side, 3 side chain; on linkers, the order of the positions; unused ones are H or OH. Bridge positions count the residues as written; N and C are the ends. Square brackets hold non-standard residues; d marks the D form. Peptide text beside a SMILES is read from it. AMPB(E) = O=C(c1ccc(/N=N/c2ccc(CN[*:1])cc2)cc1)[*:2]; X2 = O=C(c1ccc(/N=N\c2ccc(CN[*:1])cc2)cc1)[*:2]

compound | pEC50
N=C(N)NCCC[C@H](NC(=O)c1ccc(/N=N\c2ccc(CNC(=O)[C@@H]3CSSC[C@H](N)C(=O)N[C@@H](Cc4ccc(O)cc4)C(=O)N[C@@H](Cc4ccccc4)C(=O)N[C@@H](CCC(N)=O)C(=O)N[C@@H](CC(N)=O)C(=O)N3)cc2)cc1)C(=O)NCC(N)=O [Z-14] (H-CYFQNC[X2]RG-NH2; disulfide 1-6) | 5.62
N=C(N)NCCC[C@H](NC(=O)c1ccc(/N=N/c2ccc(CNC(=O)[C@@H]3CSSC[C@H](N)C(=O)N[C@@H](Cc4ccc(O)cc4)C(=O)N[C@@H](Cc4ccccc4)C(=O)N[C@@H](CCC(N)=O)C(=O)N[C@@H](CC(N)=O)C(=O)N3)cc2)cc1)C(=O)NCC(N)=O [E-14] (H-CYFQNC[AMPB(E)]RG-NH2; disulfide 1-6) | 5.30
NC(=O)CC[C@@H]1NC(=O)[C@H](Cc2ccccc2)NC(=O)[C@H](Cc2ccc(O)cc2)NC(=O)[C@@H](N)CSSC[C@@H](C(=O)NCc2ccc(/N=N/c3ccc(C(=O)NCC(N)=O)cc3)cc2)NC(=O)[C@H](CC(N)=O)NC1=O [E-13] (H-CYFQNC[AMPB(E)]G-NH2; disulfide 1-6) | 4.95
NC(=O)CC[C@@H]1NC(=O)[C@H](Cc2ccccc2)NC(=O)[C@H](Cc2ccc(O)cc2)NC(=O)[C@@H](N)CSSC[C@@H](C(=O)NCc2ccc(/N=N\c3ccc(C(=O)NCC(N)=O)cc3)cc2)NC(=O)[C@H](CC(N)=O)NC1=O [Z-13] (H-CYFQNC[X2]G-NH2; disulfide 1-6) | 5.14

* * *

Assay: Photostationary state by analytical C18-RP-HPLC
Format: physicochemical
Conditions: irradiation with 340 nm, HEPES buffer
Numbered stars: 1 amine (or outer) side, 2 acyl side, 3 side chain; on linkers, the order of the positions; unused ones are H or OH. Bridge positions count the residues as written; N and C are the ends. Square brackets hold non-standard residues; d marks the D form. Peptide text beside a SMILES is read from it. AMPB(E) = O=C(c1ccc(/N=N/c2ccc(CN[*:1])cc2)cc1)[*:2]; X1 = O=C([C@H](Cc1ccc(/N=N/c2ccccc2)cc1)N[*:1])[*:2]

molecule | PSS (E → Z) / %
CC[C@H](C)[C@@H]1NC(=O)[C@H](Cc2ccc(O)cc2)NC(=O)[C@@H](N)CSSC[C@@H](C(=O)NCc2ccc(/N=N/c3ccc(C(=O)N[C@@H](CC(C)C)C(=O)NCC(N)=O)cc3)cc2)NC(=O)[C@H](CC(N)=O)NC(=O)[C@H](CCC(N)=O)NC1=O [compound 11, [AzbL^7]-OT] (H-CYIQNC[AMPB(E)]LG-NH2; disulfide 1-6) | 87
CC[C@H](C)[C@@H]1NC(=O)[C@H](Cc2ccc(/N=N/c3ccccc3)cc2)NC(=O)[C@@H](N)CSSC[C@@H](C(=O)N2CCC[C@H]2C(=O)N[C@@H](CC(C)C)C(=O)NCC(N)=O)NC(=O)[C@H](CC(N)=O)NC(=O)[C@H](CCC(N)=O)NC1=O [compound 8, [AzbS^2]-OT] (H-C[X1]IQNCPLG-NH2; disulfide 1-6) | 94
CC[C@H](C)[C@@H]1NC(=O)[C@H](Cc2ccc(O)cc2)NC(=O)[C@@H](N)CSSC[C@@H](C(=O)NCc2ccc(/N=N/c3ccc(C(=O)NCC(N)=O)cc3)cc2)NC(=O)[C@H](CC(N)=O)NC(=O)[C@H](CCC(N)=O)NC1=O [compound 10, [AzbL^7/8]-OT] (H-CYIQNC[AMPB(E)]G-NH2; disulfide 1-6) | 86
N=C(N)NCCC[C@H](NC(=O)c1ccc(/N=N/c2ccc(CNC(=O)[C@@H]3CSSC[C@H](N)C(=O)N[C@@H](Cc4ccc(O)cc4)C(=O)N[C@@H](Cc4ccccc4)C(=O)N[C@@H](CCC(N)=O)C(=O)N[C@@H](CC(N)=O)C(=O)N3)cc2)cc1)C(=O)NCC(N)=O [compound 14, [AzbL^7]-VP] (H-CYFQNC[AMPB(E)]RG-NH2; disulfide 1-6) | 81
NC(=O)CC[C@@H]1NC(=O)[C@H](Cc2ccccc2)NC(=O)[C@H](Cc2ccc(O)cc2)NC(=O)[C@@H](N)CSSC[C@@H](C(=O)NCc2ccc(/N=N/c3ccc(C(=O)NCC(N)=O)cc3)cc2)NC(=O)[C@H](CC(N)=O)NC1=O [compound 13, [AzbL^7/8]-VP] (H-CYFQNC[AMPB(E)]G-NH2; disulfide 1-6) | 85
CC[C@H](C)[C@@H]1NC(=O)[C@H](Cc2ccc(O)cc2)NC(=O)[C@@H](N)CSSC[C@@H](C(=O)N[C@@H](Cc2ccc(/N=N/c3ccccc3)cc2)C(=O)N[C@@H](CC(C)C)C(=O)NCC(N)=O)NC(=O)[C@H](CC(N)=O)NC(=O)[C@H](CCC(N)=O)NC1=O [compound 9, [AzbS^7]-OT] (H-CYIQNC[X1]LG-NH2; disulfide 1-6) | 93
